These measurements were taken from ChEMBL document CHEMBL1201862.

# Tested on: M14
# Protocol Details: NCI tumour cell line growth inhibition, 48 h
Active and inactive are the calls of the source. Cut-off read from the data, not from the text of the source: active = GI50 up to about 1.1 µM and inactive = higher.
Quick reference for GI50 among some compounds
Measured Quantity: GI50

[[record]]
compound = "CC1(C)CCC[C@](C)([C@H]2CC[C@]3(C)[C@@H]2[C@H](O)C[C@@H]2[C@@]4(C)CC[C@H](O)C(C)(C)[C@@H]4[C@H](O)C[C@]23C)O1"
meas_value = "14.9 µM (inactive)"

[[record]]
compound = "CCOC(=O)C1=C(C)N(CC(C)C)C2(O)C(OC)CC(=O)C3C(=O)N(c4ccccc4)C(=O)C132 (centres undefined)"
meas_value = "38.3 µM (inactive)"

[[record]]
compound = "COc1cc2c(cc1OC)C(C(=O)O)C(c1ccccc1)N(C)C2=O (centres undefined)"
meas_value = "> 100 µM (inactive)"

[[record]]
compound = "CCN(CC)CCOc1ccc(C(=C2CCCCC2)c2ccc(OCCN(CC)CC)cc2)cc1"
meas_value = "1.55 µM (inactive)"

